Values from patent EP4725957A1

IC50 at 72 h by entry:
- measurement-notes: Nephrotoxicity assay: in vitro cytotoxicity of HK-2 cells by CCK-8 assay
- Format: cell-based
- measurement-context: human, HK-2 cells (human renal), 72 h incubation with drug-containing medium
Bridge positions count the residues as written; N and C are the ends. Square brackets hold non-standard residues; d marks the D form. Peptide text beside a SMILES is read from it. * marks the point of attachment. Nonanoyl = CCCCCCCCC(=O)*; Dab = NCC[C@H](N)C(=O)O; Dap = NC[C@H](N)C(=O)O
Reply numerically in µg/mL, unit not repeated.

Find the measured IC50 at 72 h of CCCCCCCCC(=O)N[C@@H](CCN)C(=O)N[C@H](C(=O)N[C@H](CO)C(=O)N[C@H]1CCNC(=O)[C@H]([C@@H](C)O)NC(=O)[C@H](CCN)NC(=O)[C@H](CN)NC(=O)[C@H]([C@@H](C)O)NC(=O)[C@@H](Cc2ccccc2)NC(=O)[C@H](CCN)NC1=O)[C@@H](C)O [Compound 75] (Nonanoyl-[Dab]T[dS][Dab][Dab][dF]T[Dap][Dab]T; lactam 4-C) and report it.
310

Find the measured IC50 at 72 h of CCCCCCCCC(=O)N[C@@H](CCN)C(=O)N[C@H](C(=O)N[C@H](CO)C(=O)N[C@H]1CCNC(=O)[C@H]([C@@H](C)O)NC(=O)[C@H](CCN)NC(=O)[C@H](CCN)NC(=O)[C@H]([C@@H](C)O)NC(=O)[C@@H](Cc2ccccc2)NC(=O)[C@H](CN)NC1=O)[C@@H](C)O [Compound 65] (Nonanoyl-[Dab]T[dS][Dab][Dap][dF]T[Dab][Dab]T; lactam 4-C) and report it.
370

###

MIC by entry:
- Tested on: Acinetobacter baumannii ABA19-1
- Assay type: cell-based
- measurement-context: ABA19-1
Bridge positions count the residues as written; N and C are the ends. Square brackets hold non-standard residues; d marks the D form. Peptide text beside a SMILES is read from it. * marks the point of attachment. Heptanoyl(6-Me) = CC(C)CCCCC(=O)*; Sulfomethyl = O=S(=O)(O)C*; Nonanoyl = CCCCCCCCC(=O)*; dDab = NCC[C@@H](N)C(=O)O; Dab = NCC[C@H](N)C(=O)O
Reply numerically in µg/mL, unit not repeated.

molecule	measured-property	recorded-value
CCCCCCCCC(=O)N[C@@H](CCN)C(=O)N[C@H](C(=O)N[C@H](CCN)C(=O)N[C@H]1CCNC(=O)[C@H]([C@@H](C)O)NC(=O)[C@H](CCN)NC(=O)[C@H](CCN)NC(=O)[C@H]([C@@H](C)O)NC(=O)[C@@H](Cc2ccccc2)NC(=O)[C@H](CCN)NC1=O)[C@@H](C)O [Compound 15] (Nonanoyl-[Dab]T[dDab][Dab][Dab][dF]T[Dab][Dab]T; lactam 4-C)	MIC	0.06

Consider the additional molecule presented here.
State recorded MIC with Acinetobacter baumannii ABA19-1, entry CC(C)CCCCC(=O)N[C@@H](CCN)C(=O)N[C@H](C(=O)N[C@H](COCS(=O)(=O)O)C(=O)N[C@H]1CCNC(=O)[C@H]([C@@H](C)O)NC(=O)[C@H](CCN)NC(=O)[C@H](CCN)NC(=O)[C@H]([C@@H](C)O)NC(=O)[C@@H](Cc2ccccc2)NC(=O)[C@H](CCN)NC1=O)[C@@H](C)O [Compound 103] ({Heptanoyl(6-Me)}-[Dab]T[dS](Sulfomethyl)[Dab][Dab][dF]T[Dab][Dab]T; lactam 4-C) , no comment.
0.06
